# target-entity: T1, human IL-6 (human, UniProt P05231 30-212)
# T1 construct: IL-6 flowed over captured antibodies
# T1 sequence (P05231 30-212 limits assumed): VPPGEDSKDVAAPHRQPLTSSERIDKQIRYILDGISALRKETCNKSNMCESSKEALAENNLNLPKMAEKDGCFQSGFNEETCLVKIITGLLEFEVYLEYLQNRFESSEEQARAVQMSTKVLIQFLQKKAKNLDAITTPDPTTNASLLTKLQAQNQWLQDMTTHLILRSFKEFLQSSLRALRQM
# assay-name: SPR Biacore, supernatant Ab on Protein A chip, 37 C
Listed here are binders together with their documented kon.
readout: kon

INSERT INTO measurements (binder, result) VALUES
  ('anti-IL-6 antibody, heavy chain T63F, G66D / light chain M32L, M50D, N52S, M88Q (antibody, IgG1, V domains shown, Full IgG1 (Expi293); VL = variant III) VH: EVQLVESGGGLVQPGGSLRLSCAASGFTFSPFAMSWVRQAPGKGLEWVAKISPGGSWTYYSDFVTDRFTFSLDTSKSTAYLQMNSLRAEDTAVYYCARQLWGYYALDIWGQGTLVTVSS VL: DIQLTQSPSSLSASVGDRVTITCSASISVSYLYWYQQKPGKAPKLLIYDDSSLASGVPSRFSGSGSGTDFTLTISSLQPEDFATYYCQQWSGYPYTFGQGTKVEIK', '1.67e+06 M⁻¹ s⁻¹'),
  ('anti-IL-6 antibody, heavy chain T63E, G66D / light chain M32L, M50D, N52S, M88Q (antibody, IgG1, V domains shown, Full IgG1 (Expi293); VL = variant III) VH: EVQLVESGGGLVQPGGSLRLSCAASGFTFSPFAMSWVRQAPGKGLEWVAKISPGGSWTYYSDEVTDRFTFSLDTSKSTAYLQMNSLRAEDTAVYYCARQLWGYYALDIWGQGTLVTVSS VL: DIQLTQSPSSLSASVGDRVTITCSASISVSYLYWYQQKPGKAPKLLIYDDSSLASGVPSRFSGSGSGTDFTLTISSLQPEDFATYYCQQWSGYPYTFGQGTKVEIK', '2e+06 M⁻¹ s⁻¹');
